Here, each record is paired with measured IC50 data.
assay-protocol: Cytotoxicity against human HBE cells assessed as inhibition of cell proliferation measured after 48 hrs by MTT assay
Assay type: cell-based
Give a bare numeral; the unit nM is implied.

Reference set, count: 3
CCCCCCCC(=O)O[C@@H]1[C@@]2(C(C)C)O[C@H]2[C@@H]2O[C@]23[C@]12O[C@H]2C[C@H]1C2=C(CC[C@@]13C)C(=O)OC2; 141
CCCCCCCCCCC(=O)O[C@@H]1[C@@]2(C(C)C)O[C@H]2[C@@H]2O[C@]23[C@]12O[C@H]2C[C@H]1C2=C(CC[C@@]13C)C(=O)OC2; 153
CC(C)[C@]12O[C@H]1[C@@H]1O[C@]13[C@]1(O[C@H]1C[C@H]1C4=C(CC[C@@]13C)C(=O)OC4)[C@@H]2OC(=O)CCCCCCC[P+](c1ccccc1)(c1ccccc1)c1ccccc1; 123

Hello, please tell me recorded IC50 for this one: CC(C)[C@]12O[C@H]1[C@@H]1O[C@]13[C@]1(O[C@H]1C[C@H]1C4=C(CC[C@@]13C)C(=O)OC4)[C@@H]2OC(=O)CCCCCCBr
116

Give the value of IC50 reported for the following: CC(C)[C@]12O[C@H]1[C@@H]1O[C@]13[C@]1(O[C@H]1C[C@H]1C4=C(CC[C@@]13C)C(=O)OC4)[C@@H]2OC(=O)CCCCCCCBr
132

These entries and their values trace back to ChEMBL document CHEMBL4840355.
